Tested on: Plasmodium berghei
assay: Screen against P. berghei liver stage (PbLuc), transformed with Luciferase, at 10uM
Format: functional, HepG2
assay.context: tested at 10 uM
The campaign covered roughly 69,000 compounds. About 8,600 (12%) showed an effect of 50% or more. The entries come from a sample that favours strong results as a whole.
# reported INHIBITION; entries follow
The reply should be a number in %, with the unit left off.

Below, each entry is followed by its recorded INHIBITION result.
molecule	INHIBITION, %
CN(Cc1ccsc1)C(=O)Nc1ccc(N(C)C)nc1	33.8
COc1cc(OCC(=O)NCCc2ccccc2)cc(OC)c1OC	-13.2
CCc1cc(NCc2cc(CC(C)C)on2)n2nccc2n1	26.8
CN(C)c1ccc(NC(=O)NCc2ccc(Cl)s2)cn1	-21
CN(C)C(=O)CN1CCCC1c1nc(N)ncc1-c1ccc(F)cc1 (stereo unspecified)	34

Let's switch to this molecule now.
What value of measured INHIBITION is listed for c1ccc(CCN2CCCC(c3ccnc4nccn34)C2)cc1 (stereo unspecified) ?
39.1

* * *

System: Plasmodium berghei
assay: Screen against P. berghei liver stage (PbLuc), transformed with Luciferase, at 10uM
Format: functional, HepG2
assay.context: tested at 10 uM
Among all 69,000 compounds or so, about 8,600 (12%) showed an effect of 50% or more. This is one part of a sample in which strong results are shown more often than they occur.
property: INHIBITION (%)
The reply should be a number in %, with the unit left off.

Below, each entry is followed by its recorded INHIBITION result.
compound	tested.target	INHIBITION / %
CC(C)CCC(C)NC(=O)CN1C=Nc2ccccc2S1(=O)=O (stereo not drawn)	Plasmodium berghei	12.7
Cc1ccc(-c2cc(N)c(=O)n(C(C)C(N)=O)n2)o1 (stereo not drawn)	Plasmodium berghei	-6.88
COc1ccc2nnc(CCCC(=O)NCc3ccccc3F)n2n1	Plasmodium berghei	-6.09
COc1ccc2c(c1)C1(CCN(Cc3ccncc3)CC1)N(C)CC2	Plasmodium berghei	-9.67
O=C(CN1C=Nc2ccccc2S1(=O)=O)NCCc1cccs1	Plasmodium berghei	53.8

What value of measured INHIBITION is listed for O=C(NC1CCC(O)CC1)c1ccc2nc(-c3ccc(F)cc3)cn2c1 (stereo not drawn) ?
35.5

Now consider O=C(CN1C=Nc2ccccc2S1(=O)=O)NCC1CC1 and answer again.
29.2

Now consider Cc1cnc(N2CCCC3(CCCN3CC(=O)N(C)C)C2)nc1 (stereo not drawn) and answer again.
79.2

Now consider Cc1cnc(N2CCC[C@@H]3CN(CC(=O)N(C)C)C[C@@H]32)nc1 and answer again.
52.3

* * *

# reported INHIBITION; entries follow
System: Plasmodium berghei
assay: Screen against P. berghei liver stage (PbLuc), transformed with Luciferase, at 10uM
Format: functional, HepG2
assay.context: tested at 10 uM
About 8,600 (12%) of roughly 69,000 compounds showed an effect of 50% or more. Only a selection was taken, and strong results are over-represented in it overall.
The reply should be a number in %, with the unit left off.

compound	unit.of.measure	INHIBITION
CC(=O)N1CCC2(CCCN(S(=O)(=O)c3ccccc3)C2)C1 (stereo unspecified)	%	-60.3
c1ccc(OCCNC2CCCN(Cc3noc(C4CC4)n3)C2)cc1 (stereo unspecified)	%	-52.5
CCCOCC1CCN(C(=O)Cn2ncc(N3CCCC3)cc2=O)C1 (stereo unspecified)	%	-13.6

What value of measured INHIBITION is listed for CN(C)C(=O)C1CN(Cc2cccs2)CCN(S(C)(=O)=O)C1 (stereo unspecified) ?
32.8

Now consider COCCN1CCCC1(C)c1nc(C)cc(N)n1 (stereo unspecified) and answer again.
-3.94

Now consider Cc1nc(O)cc(CCNC(=O)c2ccccc2N2CCCC2)n1 and answer again.
18.5

Now consider Cn1cc(CN2CCO[C@@H]3CN(Cc4ccoc4)C[C@@H]3C2)cn1 and answer again.
-18.4

Now consider CCC1(CC)CC(=O)N(CC(O)c2cccc(Br)c2)C1=O (stereo unspecified) and answer again.
-8

Now consider CN(CC(C)(C)O)C1CCCN(Cc2noc(C3CC3)n2)C1 (stereo unspecified) and answer again.
25.1

Now consider O=C(c1coc(COc2cccc(F)c2)n1)N1CC[C@H](O)[C@@H](O)C1 and answer again.
6.8

Now consider CC(C)(NS(C)(=O)=O)c1nc(-c2ccncc2)no1 and answer again.
22
